Reference source: patent US8980934B2

Consider the following compounds; for each one, report its GI50.
# System: MDA-MB-231 breast cancer cells
# Run Description: Cancer cell growth inhibition, Sulforhodamine B assay
# Format: cell-based
# Condition: Homo sapiens, 120 h; MDA-MB-231, 5 days culture, SRB; read-out: Cancer Cell Line GI50 Range MDA-MB-231

Query: Suppose we examine the compound CC(C)C(NC(=O)c1ccc2[nH]nc(-c3ccc(N4CC5(COC5)C4)cc3)c2c1)c1ccccc1Cl (stereo not shown) ; what GI50 value has been reported?
Response: ≤ 100 nM

Query: Suppose we examine the compound CC(C)C[C@H](NC(=O)c1ccc2[nH]nc(-c3ccc(N4CC5(COC5)C4)cc3)c2c1)c1ccccn1 ; what GI50 value has been reported?
Response: ≤ 100 nM

Query: Suppose we examine the compound O=C(N[C@H](c1ccccn1)C1CCCC1)c1ccc2[nH]nc(-c3ccc(N4CC5(CCOCC5)C4)cc3)c2c1 ; what GI50 value has been reported?
Response: ≤ 100 nM

Query: Suppose we examine the compound O=C(N[C@H](c1ccccn1)C1CCCC1)c1ccc2[nH]nc(-c3ccc(N4CC5(C4)CN(C4COC4)C5)cc3)c2c1 ; what GI50 value has been reported?
Response: ≤ 100 nM

Query: Suppose we examine the compound O=C(N[C@@H](c1ncccn1)C1CCCC1)c1ccc2[nH]nc(-c3ccc(N4CC5(COC5)C4)cc3)c2c1 ; what GI50 value has been reported?
Response: ≤ 100 nM

Query: Suppose we examine the compound CC(C)[C@H](NC(=O)c1ccc2[nH]nc(-c3ccc(N4CC5(CC(O)C5)C4)cc3)c2c1)c1ccccc1Cl ; what GI50 value has been reported?
Response: ≤ 100 nM

Query: Suppose we examine the compound O=C(Nc1ccc2[nH]nc(-c3ccc(N4CC5(COC5)C4)cc3)c2c1)C(c1ccsc1)N1CCCC1 (stereo not shown) ; what GI50 value has been reported?
Response: ≤ 100 nM

Query: Suppose we examine the compound O=C(N[C@@H](c1ccccn1)C1CC1)c1ccc2[nH]nc(-c3ccc(N4CC5(CCO5)C4)cc3)c2c1 ; what GI50 value has been reported?
Response: ≤ 100 nM

Query: Suppose we examine the compound O=C(NC(c1ncccn1)C1CCCC1)c1ccc2[nH]nc(-c3ccc(N4CC5(COC5)C4)cc3)c2c1 (stereo not shown) ; what GI50 value has been reported?
Response: ≤ 100 nM

Query: Suppose we examine the compound O=C(N[C@@H](c1ccsc1)C1CCCC1)c1ccc2[nH]nc(-c3ccc(N4CC5(COC5)C4)cc3)c2c1 ; what GI50 value has been reported?
Response: > 500 nM

Query: Suppose we examine the compound O=C(N[C@H](c1ccccn1)C1CCCC1)c1ccc2[nH]nc(-c3ccc(N4CCC45COC5)cc3)c2c1 ; what GI50 value has been reported?
Response: 100 to 500 nM

Query: Suppose we examine the compound O=C(NC(c1nccs1)C1CC1)c1ccc2[nH]nc(-c3ccc(N4CC5(COC5)C4)cc3)c2c1 (stereo not shown) ; what GI50 value has been reported?
Response: ≤ 100 nM

Query: Suppose we examine the compound O=C(N[C@H](c1ccccn1)C1CC1)c1ccc2[nH]nc(-c3ccc(N4CC5(CCOCC5)C4)cc3)c2c1 ; what GI50 value has been reported?
Response: ≤ 100 nM

====

Record set of GI50 for target or system MDA-MB-231 breast cancer cells.

Query: Suppose we examine the compound CN1CC2(C1)CN(c1ccc(-c3n[nH]c4ccc(C(=O)N[C@H](c5ccccc5)C5CC5)cc34)cc1)C2 [Example A29] ; what GI50 value has been reported?
Response: ≤ 100 nM

Query: Suppose we examine the compound O=C(N[C@H](c1ccccn1)C1CCCC1)c1ccc2[nH]nc(-c3ccc(N4CC5(CCO5)C4)cc3)c2c1 [Example A20] ; what GI50 value has been reported?
Response: ≤ 100 nM

Query: Suppose we examine the compound O=C(N[C@H](c1ccccc1)C1CC1)c1ccc2[nH]nc(-c3ccc(N4CC5(COC5)C4)cc3)c2c1 [Example A10] ; what GI50 value has been reported?
Response: 100 to 500 nM
